system: 931267-113-T-J1-PDC KRAS spheroid with HUVEC/MSC, viability; experiment: Anticancer human tumor 931267-113-T-J1-PDC patient-derived colon adenocarcinoma cell line growth inhibition [KRAS2]; details: second compound 10 µM; first compound 0.0316 µM; active compounds read low
In plain terms, low viability, T/C, meaning strictly below 20%, gives MET, and everything else gives NOT MET.

compound	assigned label
CC(=O)Nc1cccc(-n2c(=O)n(C3CC3)c(=O)c3c(Nc4ccc(I)cc4F)n(C)c(=O)c(C)c32)c1 + C=CC(=O)N1CCN(c2nc(=O)n(-c3c(C)ccnc3C(C)C)c3nc(-c4c(O)cccc4F)c(F)cc23)C(C)C1	NOT MET
CN(C)C/C=C/C(=O)Nc1cc2c(Nc3ccc(F)c(Cl)c3)ncnc2cc1O[C@H]1CCOC1 + COc1cc2nc(C)nc(NC(C)c3cc(N)cc(C(F)(F)F)c3)c2cc1OC1CCOC1	NOT MET
CC1OCC2(CCN(c3cnc(Sc4ccnc(N)c4Cl)c(N)n3)CC2)C1N (stereo not given) + COc1cc2nc(C)nc(NC(C)c3cc(N)cc(C(F)(F)F)c3)c2cc1OC1CCOC1	MET
CC(=O)OC12COC1CC(O)C1(C)C(=O)C(O)C3=C(C)C(OC(=O)C(O)C(NC(=O)OC(C)(C)C)c4ccccc4)CC(O)(C(OC(=O)c4ccccc4)C21)C3(C)C (stereo not given) + CC1OCC2(CCN(c3cnc(Sc4ccnc(N)c4Cl)c(N)n3)CC2)C1N	NOT MET

----------
tested on: 931267-113-T-J1-PDC KRAS spheroid with HUVEC/MSC, viability; experiment: Anticancer human tumor 931267-113-T-J1-PDC cell line growth inhibition [KRAS2]; conditions: second compound 0.1 µM; first compound 0.00316 µM; active compounds read low;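 note: compound exposure lasted 7 days before the readout; 100% = DMSO vehicle control viability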
In plain terms, low viability, T/C, meaning strictly below 80%, gives satisfied, and everything else gives not satisfied.

compound	assigned label
CN(C)C/C=C/C(=O)Nc1cc2c(Nc3ccc(F)c(Cl)c3)ncnc2cc1O[C@H]1CCOC1 + C=CC(=O)N1CCN(c2nc(OCC3CCCN3C)nc3c2CCN(c2cccc4cccc(C)c24)C3)CC1CC#N	satisfied
CCN1CCN(Cc2ccc(Nc3ncc(F)c(-c4cc(F)c5nc(C)n(C(C)C)c5c4)n3)nc2)CC1 + C=CC(=O)N1CCN(c2nc(OCC3CCCN3C)nc3c2CCN(c2cccc4cccc(C)c24)C3)CC1CC#N	not satisfied
CC(=O)Nc1cccc(-n2c(=O)n(C3CC3)c(=O)c3c(Nc4ccc(I)cc4F)n(C)c(=O)c(C)c32)c1 + CNCc1ccccc1-c1csc(C(C)Nc2nc(C)nc3cc(OC)c(OC)cc23)c1	satisfied
CN(C)C/C=C/C(=O)Nc1cc2c(Nc3ccc(F)c(Cl)c3)ncnc2cc1O[C@H]1CCOC1 + C=CC(=O)N1CCN(c2nc(=O)n(-c3c(C)ccnc3C(C)C)c3nc(-c4c(O)cccc4F)c(F)cc23)C(C)C1	satisfied

----------
The entries below come with measured viability, T/C values attached.
System: 931267-113-T-J1-PDC KRAS spheroid with HUVEC/MSC, viability
Assay: Anticancer human tumor 931267-113-T-J1-PDC cell line growth inhibition [KRAS2];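 note: compound exposure lasted 7 days before the readout; 100% = DMSO vehicle control viability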
Conditions: second compound 3.16 µM; first compound 10 µM; active compounds read low
Excerpt: Multicellular complex tumor spheroid response to RAS pathway inhibitors in combination with a targeted agents in patient-derived cell lines with oncogenic KRAS variants from multiple cancer types A high-throughput screen of multi-cell type tumor spheroids was designed to identify active combinations of targeted small molecules and KRAS pathway inhibitors. […] Compounds. […] If the clinical Cmax for an agent had not been determined, the highest concentration tested was 10 microM. […]

compound	system under test	viability, T/C (%)
CCNC(=O)CC1N=C(c2ccc(Cl)cc2)c2cc(OC)ccc2-n2c(C)nnc21 (stereo not given) + C=CC(=O)N1CCN(c2nc(=O)n(-c3c(C)ccnc3C(C)C)c3nc(-c4c(O)cccc4F)c(F)cc23)C(C)C1	931267-113-T-J1-PDC KRAS spheroid with HUVEC/MSC, viability	51.8
CCNC(=O)CC1N=C(c2ccc(Cl)cc2)c2cc(OC)ccc2-n2c(C)nnc21 (stereo not given) + CC1OCC2(CCN(c3cnc(Sc4ccnc(N)c4Cl)c(N)n3)CC2)C1N	931267-113-T-J1-PDC KRAS spheroid with HUVEC/MSC, viability	13.4
COc1cc(Nc2ncc3c(n2)-c2ccc(Cl)cc2C(c2c(F)cccc2OC)=NC3)ccc1C(=O)O + CNCc1ccccc1-c1csc(C(C)Nc2nc(C)nc3cc(OC)c(OC)cc23)c1	931267-113-T-J1-PDC KRAS spheroid with HUVEC/MSC, viability	0.35
CC(C)NCC(C(=O)N1CCN(c2ncnc3c2C(C)CC3O)CC1)c1ccc(Cl)cc1 (stereo not given) + C=CC(=O)N1CCN(c2nc(OCC3CCCN3C)nc3c2CCN(c2cccc4cccc(C)c24)C3)CC1CC#N	931267-113-T-J1-PDC KRAS spheroid with HUVEC/MSC, viability	0.46
CC1(C)CCC(CN2CCN(c3ccc(C(=O)NS(=O)(=O)c4ccc(NCC5CCOCC5)c([N+](=O)[O-])c4)c(Oc4cnc5[nH]ccc5c4)c3)CC2)=C(c2ccc(Cl)cc2)C1 + C=CC(=O)N1CCN(c2nc(OCC3CCCN3C)nc3c2CCN(c2cccc4cccc(C)c24)C3)CC1CC#N	931267-113-T-J1-PDC KRAS spheroid with HUVEC/MSC, viability	0.26
COC(=O)c1ccc2c(C(=Nc3ccc(N(C)C(=O)CN4CCN(C)CC4)cc3)c3ccccc3)c(O)[nH]c2c1 + C=CC(=O)N1CCN(c2nc(=O)n(-c3c(C)ccnc3C(C)C)c3nc(-c4c(O)cccc4F)c(F)cc23)C(C)C1	931267-113-T-J1-PDC KRAS spheroid with HUVEC/MSC, viability	0.22
CCNC(=O)CC1N=C(c2ccc(Cl)cc2)c2cc(OC)ccc2-n2c(C)nnc21 (stereo not given) + COc1cc2nc(C)nc(NC(C)c3cc(N)cc(C(F)(F)F)c3)c2cc1OC1CCOC1	931267-113-T-J1-PDC KRAS spheroid with HUVEC/MSC, viability	22
Cn1nccc1Nc1nccc(-c2cc3c(s2)C(C)(C)N(CCN2CCOCC2)C3=O)n1 + CNCc1ccccc1-c1csc(C(C)Nc2nc(C)nc3cc(OC)c(OC)cc23)c1	931267-113-T-J1-PDC KRAS spheroid with HUVEC/MSC, viability	0.11
O=C(c1cc(Cc2n[nH]c(=O)c3ccccc23)ccc1F)N1CCN(C(=O)C2CC2)CC1 + CNCc1ccccc1-c1csc(C(C)Nc2nc(C)nc3cc(OC)c(OC)cc23)c1	931267-113-T-J1-PDC KRAS spheroid with HUVEC/MSC, viability	0.38
O=C(c1cc(Cc2n[nH]c(=O)c3ccccc23)ccc1F)N1CCN(C(=O)C2CC2)CC1 + CC1OCC2(CCN(c3cnc(Sc4ccnc(N)c4Cl)c(N)n3)CC2)C1N	931267-113-T-J1-PDC KRAS spheroid with HUVEC/MSC, viability	50.8
